- Assay System: human mGluR4 (Homo sapiens, UniProt Q14833)
- Sequence (Q14833 33-912): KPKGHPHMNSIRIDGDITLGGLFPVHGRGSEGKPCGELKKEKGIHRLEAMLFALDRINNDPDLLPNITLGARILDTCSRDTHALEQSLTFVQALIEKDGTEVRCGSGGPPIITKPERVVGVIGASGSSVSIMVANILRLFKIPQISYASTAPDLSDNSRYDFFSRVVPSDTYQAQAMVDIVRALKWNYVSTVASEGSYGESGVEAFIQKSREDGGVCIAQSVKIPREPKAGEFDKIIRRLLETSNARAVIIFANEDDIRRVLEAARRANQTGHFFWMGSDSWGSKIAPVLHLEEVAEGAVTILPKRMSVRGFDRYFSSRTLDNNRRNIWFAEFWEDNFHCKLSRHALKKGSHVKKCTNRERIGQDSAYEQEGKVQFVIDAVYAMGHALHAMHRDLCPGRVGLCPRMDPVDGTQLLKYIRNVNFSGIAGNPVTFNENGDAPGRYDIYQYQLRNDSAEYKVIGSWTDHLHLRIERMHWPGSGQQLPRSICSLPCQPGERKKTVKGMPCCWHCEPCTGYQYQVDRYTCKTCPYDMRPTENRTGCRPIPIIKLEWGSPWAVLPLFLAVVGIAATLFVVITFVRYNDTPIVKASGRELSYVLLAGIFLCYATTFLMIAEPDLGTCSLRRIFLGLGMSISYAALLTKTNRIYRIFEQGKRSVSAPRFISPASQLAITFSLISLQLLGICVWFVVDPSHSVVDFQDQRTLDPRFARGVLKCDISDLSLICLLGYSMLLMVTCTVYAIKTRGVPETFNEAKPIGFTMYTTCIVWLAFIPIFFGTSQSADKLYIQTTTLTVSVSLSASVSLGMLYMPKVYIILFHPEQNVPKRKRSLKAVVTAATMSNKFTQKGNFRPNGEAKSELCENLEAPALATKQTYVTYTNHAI
- Protocol Details: potentiation of human mGluR4 in transfected CHO cells, Ca2+-sensitive dye fluorescence, EC20 agonist
- Condition Parameters: hEC50, human mGluR4 potentiation; unit inferred
pEC50: −log10 of the molar value.
Value Type: pEC50

According to the records, this molecule CN1CCOc2cc(S(=O)(=O)n3ccc(NC(=O)c4ccccn4)c3)ccc21 displays pEC50 of 6.84

A. O=C(Nc1ccn(S(=O)(=O)c2ccc(F)c(F)c2)c1)c1ccccn1
B. CC(C)(C)OC(=O)C(c1ccccc1)S(=O)(=O)n1ccc(NC(=O)c2ccccn2)c1 (stereo not drawn)
// query Which gives the smaller pEC50 number: A or B ? To answer, give the label that identifies your chosen option.
// result B

###

- Assay System: human mGluR4 (Homo sapiens)
- Protocol Details: potentiation of human mGluR4 in transfected CHO cells, Ca2+-sensitive dye fluorescence, EC20 agonist
- Condition Parameters: hEC50, human mGluR4 potentiation; unit inferred
Value Type: EC50 (nM)

Study these solved cases before continuing.
According to the records, this molecule CC(C)(C)c1ccc(S(=O)(=O)n2ccc(NC(=O)c3ccccn3)c2)cc1 displays EC50 of 16800

According to the records, this molecule O=C(Nc1ccn(S(=O)(=O)Cc2ccc(Br)cc2)c1)c1ccccn1 displays EC50 of 144

According to the records, this molecule Cn1cc(S(=O)(=O)n2ccc(NC(=O)c3ccccn3)c2)cn1 displays EC50 of 4790

According to the records, this molecule Cc1ccc(S(=O)(=O)n2cc(NC(=O)c3ccccn3)cc2C)cc1 displays EC50 of 3810

According to the records, this molecule Cc1ccc(C(=O)Nc2ccn(S(=O)(=O)Cc3ccc(Cl)cc3)c2)nc1 displays EC50 of 431

1. Cc1c(Cl)cccc1S(=O)(=O)n1ccc(NC(=O)c2ccccn2)c1
2. COc1ccc(S(=O)(=O)n2ccc(NC(=O)c3ccco3)c2)cn1
3. Cc1ccc(S(=O)(=O)n2ccc(NC(=O)c3ccccn3)c2)c(C)c1
4. CCc1ccc(S(=O)(=O)n2ccc(NC(=O)c3ccccn3)c2)cc1
5. O=C(Nc1cn(S(=O)(=O)c2ccc(Cl)cc2)c2ccccc12)c1ccccn1
// query Ordering: ascending EC50. A complete answer lists every label in the requested sequence.
// result 4, 1, 3, 2, 5

###

- Assay System: human mGluR4 (Homo sapiens)
- Protocol Details: potentiation of human mGluR4 in transfected CHO cells, Ca2+-sensitive dye fluorescence, EC20 agonist
- Condition Parameters: hEC50, human mGluR4 potentiation; unit inferred
pEC50: −log10 of the molar value.
Value Type: pEC50

According to the records, this compound O=C(Nc1ccn(S(=O)(=O)c2cc(F)c(F)c(F)c2)c1)c1ccccn1 displays pEC50 of 6.56

According to the records, this compound O=C(Nc1ccn(S(=O)(=O)c2cccs2)c1)c1ccccn1 displays pEC50 of 7.10

According to the records, this compound O=C(Nc1ccn(S(=O)(=O)c2ccc(F)c(Cl)c2)c1)c1ccccn1 displays pEC50 of 6.19

a. O=C(Nc1ccn(S(=O)(=O)c2ccc(CO)cc2)c1)c1ccccn1
b. O=C(Nc1ccn(S(=O)(=O)C(F)c2ccccc2F)c1)c1ccccn1 (stereo not drawn)
// query Which is greater in pEC50, the first item a or the second item b ? To answer, give the label that identifies your chosen option.
// result b
(b: 6.37, a: 5.92)

###

- Assay System: human mGluR4 (Homo sapiens, UniProt Q14833)
- Protocol Details: potentiation of human mGluR4 in transfected CHO cells, Ca2+-sensitive dye fluorescence, EC20 agonist
- Condition Parameters: hEC50, human mGluR4 potentiation; unit inferred
pEC50: −log10 of the molar value.
Value Type: pEC50

Study these solved cases before continuing.
According to the records, this molecule Cc1cccc(Cl)c1S(=O)(=O)n1ccc(NC(=O)c2ccccn2)c1 displays pEC50 of 6.01

According to the records, this molecule O=C(Nc1ccn(S(=O)(=O)Cc2c(Cl)cccc2Cl)c1)c1ccccn1 displays pEC50 of 6.92

According to the records, this molecule Cc1c(F)cccc1S(=O)(=O)n1ccc(NC(=O)c2ccccn2)c1 displays pEC50 of 6.41

According to the records, this molecule Cc1cc(S(=O)(=O)n2ccc(NC(=O)c3ccccn3)c2)ccc1F displays pEC50 of 6.40

P. Cc1cc(C)c(S(=O)(=O)n2ccc(NC(=O)c3ccccn3)c2)cc1Cl
Q. Cc1ccc(S(=O)(=O)n2ccc(NC(=O)c3ccccn3)c2)s1
R. O=C(Nc1ccn(S(=O)(=O)Cc2ccc(F)cc2Cl)c1)c1ccco1
S. O=C(Nc1ccn(S(=O)(=O)c2ccc(N3CCOCC3)nc2)c1)c1ccccn1
T. O=C(Nc1ccn(S(=O)(=O)c2ccc(C(F)(F)F)c(F)c2)c1)c1ccccn1
// query Given 5 molecules, produce a descending ranking by pEC50. A complete answer lists every label in the requested sequence.
// result Q, R, S, T, P

###

- Assay System: human mGluR4 (Homo sapiens)
- Protocol Details: potentiation of human mGluR4 in transfected CHO cells, Ca2+-sensitive dye fluorescence, EC20 agonist
- Condition Parameters: EC50 (nM), potentiation of EC20 agonist response; Table I
Value Type: EC50 (nM)

Study these solved cases before continuing.
According to the records, this compound O=C(Nc1ccn(S(=O)(=O)c2ccccc2C(F)(F)F)c1)c1ccccn1 displays EC50 of 526

According to the records, this compound O=C(Nc1ccn(S(=O)(=O)Cc2ccccc2)c1)c1nccs1 displays EC50 of 4380

According to the records, this compound O=C(Nc1ccn(S(=O)(=O)CCc2ccccc2)c1)c1ccccn1 displays EC50 of 483

According to the records, this compound Cc1ccccc1S(=O)(=O)n1ccc(NC(=O)c2ccccn2)c1 displays EC50 of 198

1. O=C(Nc1ccn(S(=O)(=O)c2ccccc2F)c1)c1ccccn1
2. N#Cc1cccc(CS(=O)(=O)n2ccc(NC(=O)c3ccccn3)c2)c1
// query Which is greater in EC50, the first item 1 or the second item 2 ? To answer, give the label that identifies your chosen option.
// result 2

###

- Assay System: human mGluR4 (Homo sapiens)
- Protocol Details: potentiation of human mGluR4 in transfected CHO cells, Ca2+-sensitive dye fluorescence, EC20 agonist
- Condition Parameters: hEC50, human mGluR4 potentiation; unit inferred
Value Type: EC50 (nM)

Study these solved cases before continuing.
According to the records, this compound O=C(Nc1ccn(S(=O)(=O)Cc2ccccc2Cl)c1)c1nccs1 [Example 52] displays EC50 of 767

According to the records, this compound O=C(Nc1ccn(S(=O)(=O)c2cccc(Cl)c2F)c1)c1ccco1 [Example 162] displays EC50 of 2540

According to the records, this compound O=C(Nc1ccn(S(=O)(=O)c2ccccn2)c1)c1ccccn1 [Example 160] displays EC50 of 1490

a. O=C(Nc1ccn(S(=O)(=O)c2ccc(Cl)cc2F)c1)c1ccccn1 [Example 138]
b. O=C(Nc1ccn(S(=O)(=O)c2ccoc2)c1)c1ccccn1 [Example 125]
c. COc1ccc(S(=O)(=O)n2ccc(NC(=O)c3ccco3)c2)cc1 [Example 164]
// query Ordering: ascending EC50. A complete answer lists every label in the requested sequence.
// result a, c, b

P. COc1ccccc1S(=O)(=O)n1ccc(NC(=O)c2ccccn2)c1 [Example 72]
Q. Cc1cccc(S(=O)(=O)n2ccc(NC(=O)c3nccs3)c2)c1 [Example 53]
R. O=C(Nc1ccn(S(=O)(=O)c2cnc3ccccc3c2)c1)c1ccccn1 [Example 136]
S. O=C(Nc1ccn(S(=O)(=O)c2ccc(F)c(F)c2)c1)c1nccs1 [Example 80]
T. O=C(Nc1ccn(S(=O)(=O)c2ccc(Cl)c(C(F)(F)F)c2)c1)c1ccccn1 [Example 102]
// query Ordering: ascending EC50. A complete answer lists every label in the requested sequence.
// result R, Q, S, P, T
(R: 253 nM, Q: 767 nM, S: 1270 nM, P: 2060 nM, T: 5120 nM)

A. CC(c1ccc(Cl)cc1)S(=O)(=O)n1ccc(NC(=O)c2ccccn2)c1 (stereo not drawn) [Example 109]
B. Cc1ccc(F)c(S(=O)(=O)n2ccc(NC(=O)c3ccccn3)c2)c1 [Example 89]
C. COc1ccc(S(=O)(=O)n2ccc(NC(=O)c3ccccn3)c2)cc1Cl [Example 64]
D. O=C(Nc1ccn(S(=O)(=O)Cc2ccccc2)c1)c1nccs1 [Example 63]
// query Given 4 compounds, produce a descending ranking by EC50. A complete answer lists every label in the requested sequence.
// result D, A, C, B

###

- Assay System: human mGluR4 (Homo sapiens)
- Protocol Details: potentiation of human mGluR4 in transfected CHO cells, Ca2+-sensitive dye fluorescence, EC20 agonist
- Condition Parameters: EC50 (nM), potentiation of EC20 agonist response; Table I
Value Type: EC50

Study these solved cases before continuing.
According to the records, this molecule O=C(Nc1ccn(S(=O)(=O)c2ccc3ccccc3c2)c1)c1ccccn1 displays EC50 of > 10000 nM

According to the records, this molecule COc1cccc(C(=O)Nc2ccn(S(=O)(=O)Cc3ccccc3)c2)c1 displays EC50 of > 20000 nM

// next item, EC50 requested
According to the records, this molecule O=C(Nc1ccn(S(=O)(=O)Cc2ccccc2)c1)c1ccncn1 displays EC50 of > 20000 nM
